Assay: physchem
Details: buffer or solvent, pH 7.2
Reported endpoint: remaining at 4 h

structure_notation=CC[C@H](C)[C@@H]1NC(=O)[C@@H]2CCCN2C(=O)[C@H](CO)NC(=O)[C@H](CCSC)NC(=O)[C@H](C)NC(=O)[C@H](CO)NC(=O)[C@@H]2CSSC[C@H](NC(=O)CN)C(=O)N[C@@H](CSSC[C@@H](C(N)=O)NC1=O)C(=O)N[C@@H](CO)C(=O)N[C@@H](Cc1cnc[nH]1)C(=O)N1CCC[C@H]1C(=O)N[C@@H](C(C)C)C(=O)N2 result=~50%
